Target: T1, His-tagged cynomolgus monkey B7-H3 (cynomolgus monkey)
T1 chain: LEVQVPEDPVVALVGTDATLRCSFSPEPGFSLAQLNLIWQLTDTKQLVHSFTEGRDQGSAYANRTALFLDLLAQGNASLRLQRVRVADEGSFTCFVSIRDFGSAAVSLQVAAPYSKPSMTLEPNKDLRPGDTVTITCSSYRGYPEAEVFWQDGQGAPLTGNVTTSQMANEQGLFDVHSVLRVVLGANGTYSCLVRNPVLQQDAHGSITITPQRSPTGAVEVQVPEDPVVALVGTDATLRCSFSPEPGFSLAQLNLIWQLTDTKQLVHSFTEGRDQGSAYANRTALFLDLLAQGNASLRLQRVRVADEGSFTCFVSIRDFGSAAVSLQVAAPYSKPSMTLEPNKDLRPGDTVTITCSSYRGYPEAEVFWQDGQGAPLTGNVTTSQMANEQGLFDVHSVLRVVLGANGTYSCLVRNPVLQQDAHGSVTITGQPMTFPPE
Experiment: ELISA, coated His-tagged antigen, scFv-Fc 1 ug/ml
Give ELISA OD450 @ 1 ug/ml for every item shown.
Answer by giving the amount and then stating its unit.

[[record]]
binder = "40633p1.1.H11 (scFv, V domains shown, Tested as scFv-Fc (Expi293 supernatant)) VH: EVQLLESGGGLVQPGGSLRLSCAASGFTFSSYPMTWVRQAPGKGLEWVADINSGGGTTLYADAVKGRFTISRDNSKNIVYLQMNSLRGEDTAVYYCAKHLDYYSYGMDVWGQGTTVTVSS VL: QSVLTQPPSASGTPGQRVTISCSGVTSKIGSKYVHWYQQLPGTAPKLLIYRNFERPSGVPDRFSGSTSGTSASLAISGLQSEDEADYYCATWEGALNGWVFGGGTKLTVL"
test_value = "1.92 OD450"


Input 40633p1.1.G10 (scFv, V domains shown, Tested as scFv-Fc (Expi293 supernatant)) VH: EVQLLESGGGLVEPGGSLRLSCAASGFSFSSYGMHWVRQAPGKGLDWVAVINGEGSGTYYADSVKGRFTISRDNSKSTLYLQMNSLRAEDTAVYYCTKYYYNYAMDVWGQGTTVTVSS VL: QSVLTQPPSASGTPGQRVTISCSGSRTDIGTTSVNWYQQLPGTAPKLLIYQSHQRPSGVPDRFSGSKSGTSASLAISGLQSEDEADYYCASWDASQNTWVFGGGTKLTVL . Output ELISA OD450 @ 1 ug/ml: 1.81 OD450
